# Assay System: HIV-1 PR (HIV-1 protease) (HIV-1 M:B_HXB2R)
# Construct: gene gag-pol; mature protease cut from Gag-Pol polyprotein (Pr160Gag-Pol); SensoLyte 520 HIV-1 assay kit; homodimer
# Format: biochemical
# Conditions Used: n = 3; read-out: HIV-1 PR / IC50 ± SD (mg/mL) (converted)
Exercise: state measured IC50 for each of the compounds provided.
Numbers only, in µM.

Study these solved cases before continuing.
O=C(O)[C@H]1O[C@@H](Oc2cc3oc(-c4ccccc4)cc(=O)c3c(O)c2O)[C@H](O)[C@@H](O)[C@@H]1O ... 1860
O=c1cc(-c2ccc(O)cc2)oc2cc(O)c(O)c(O)c12 ... 238
O=c1cc(-c2ccc(O)c(O)c2)oc2cc(O)cc(O)c12 ... 136

Each of the following entries comes with a recorded value; kindly state IC50 for each.
1. O=C1C[C@@H](c2ccc(O)cc2)Oc2cc(O)cc(O)c21
2. COc1c(O)cc(O)c2c(=O)cc(-c3ccccc3)oc12
3. O=c1cc(-c2ccc(O)cc2)oc2cc(O)cc(O)c12

Reply |
1: 661; 2: 1410; 3: 481
